study_target: T1, c-mpl receptor (Homo sapiens (Human), UniProt P40238 26-491, The MPL used for panning was biotinylated; the biotin site is not stated and is not carried by the letters.)
T1 construct: also called TPO receptor
T1 sequence: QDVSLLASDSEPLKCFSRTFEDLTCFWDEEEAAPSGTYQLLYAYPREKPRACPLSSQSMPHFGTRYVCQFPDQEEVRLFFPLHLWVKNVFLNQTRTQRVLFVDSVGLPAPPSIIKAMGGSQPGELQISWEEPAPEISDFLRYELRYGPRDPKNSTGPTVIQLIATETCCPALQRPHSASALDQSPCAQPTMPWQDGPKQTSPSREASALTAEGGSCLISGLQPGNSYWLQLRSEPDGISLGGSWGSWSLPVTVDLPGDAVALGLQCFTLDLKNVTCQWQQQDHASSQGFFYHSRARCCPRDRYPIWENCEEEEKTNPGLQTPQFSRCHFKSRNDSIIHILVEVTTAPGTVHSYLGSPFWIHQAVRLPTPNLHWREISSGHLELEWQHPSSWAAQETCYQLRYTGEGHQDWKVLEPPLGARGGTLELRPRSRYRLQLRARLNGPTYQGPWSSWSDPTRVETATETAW
experimental_details: phage-ELISA
Examples of binders with documented Relative activity follow.
experimental_readout: Relative activity

{"binder": "IEGPTFKQWQACLHSHS [SEQ ID NO: 266]", "experimental_readout": "Relative activity", "reading": 114}
{"binder": "IEGPTFKQWQYWRAKHS [SEQ ID NO: 275]", "experimental_readout": "Relative activity", "reading": 105}
{"binder": "IEGPTFKQWQKLRRVHS [SEQ ID NO: 248]", "experimental_readout": "Relative activity", "reading": 155}
{"binder": "SEQ ID NO: 326 (peptide) peptide: IEGNYWFWQQVGQENTLSREWIQTLGQKYWYRPPSICAQIEGWSRHQHYSAMSGHS", "experimental_readout": "Relative activity", "reading": 13.2}
{"binder": "IEGPTLHEWLLYRRAHS [SEQ ID NO: 335]", "experimental_readout": "Relative activity", "reading": 73.7}
{"binder": "IEGEALVFWWRVRGGHS [SEQ ID NO: 294]", "experimental_readout": "Relative activity", "reading": 73.9}
{"binder": "IEGPTFKQWQKCRNMHS [SEQ ID NO: 247]", "experimental_readout": "Relative activity", "reading": 164}
